biological target: Spike protein of the COVID-19 Spike-ACE2 Binding Assay Kit (Raybiotech) (SARS-CoV-2, UniProt P0DTC2 319-541)
quantity: IC50 (nM)
Give the value, in units of nM, as a plain number.

IN: Fill in the blank: the reported IC50 of M2S320_75 Nb-Fc (Fc fusion, also called LVGN-S32075) EVQLQQSGPELVKPGASVKMSCKASGYTFTDYYMKWLKQNHGKSLEWIGDINPNNGDTFYNQKFKGKATLTVDTSSSTAYMQLNSLTSEDSAVYYCARKEYGDYGYATDYWGQGTSVTVSS is ____.
OUT: 0.12

IN: Fill in the blank: the reported IC50 of M2S521_193 Nb-Fc (Fc fusion, also called LVGN-S521193) EVQLQQSGPELVKPGASVKISCKASGYTFTDYYMKWVKQSHGKSLEWIGDINPNNGGARYNQKFKGRATLTVDKSSSTAYMELRSLTSEDSAVYYCSRLEDGYYGYAVDYWGQGTSVTVSS is ____.
OUT: 0.16

IN: Fill in the blank: the reported IC50 of M2S521_72 Nb-Fc (Fc fusion, also called LVGN-S52172) EVQLQQSGPELVKPGASVKISCKASGYTFTDYYMKWAKQSHGKSLEWIGHINPVNGDTSYNQKFKGKATLTVDKSSSTVYMELRSLTSEDSAVYYCARLEDGYYGYTMDYWGQGTSVTVSS is ____.
OUT: 0.041

IN: Fill in the blank: the reported IC50 of M2S521_623 Nb-Fc (Fc fusion, also called LVGN-S521623) EVQLQQSGPELVKPGASVKISCKASGYTFTDYYMKWEKQSHGKSLEWIGDINPNNGGTRYNQKFRGKATLTVDKSSSTAYMELRSLTSEDSAVYYCARLEDDYYGYAVDYWGQGTSVTVSS is ____.
OUT: 0.13
